Test system: MOLT-4 leukemia
Test: NCI-60 one-dose screen, 48 h (100 = growth as untreated, 0 = no growth, -100 = all killed)
Conditions: 10 µM unless noted
This is part of a sample that, as a whole, favours compounds with a hit. Of some 83,000 tested, about 20% had one in any assay.
For each of the molecules below, state its growth.
One number for each entry, in %.

{"columns": ["molecule", "quantityUnit", "reportedResult"],
 "data": [
  ["Cc1cc(CC(=O)O)n(C)c1C(=O)c1ccc(Cl)cc1", "%", 98.3]
]}

Each molecule below has a recorded value; state its growth.
1. CSc1ccc2c(c1)N(CCC1CCCCN1C)c1ccccc1S2 (stereo not drawn)
2. Cc1cc(C(C)(C)c2cc(C)c(O)c(CN(C)C)c2)cc(CN(C)C)c1O

Data returned:
1: 40.5; 2: 87.4

====

For each of the compounds below, state its growth.
System: OVCAR-8 ovarian
Experiment: NCI-60 one-dose screen, 48 h (100 = growth as untreated, 0 = no growth, -100 = all killed)
Details: 10 µM unless noted
About 83,000 compounds went through this panel and 20% of them were active in at least one assay; those are over-represented in the sample as a whole.
Give bare numbers, in %.

{"columns": ["smilesStr", "measurementLabel", "reportedResult"],
 "data": [
  ["COc1cc(-c2cc(C(=O)Nc3nc4ccccc4s3)nc3cc(-c4ccccc4)nn23)cc(OC)c1OC", "growth", 60.2],
  ["COc1ccc(-c2oc3cc(O)c(OC)c(O)c3c(=O)c2OC)cc1O", "growth", 25.3],
  ["Clc1ccc(-c2nc(-c3cccs3)no2)c(Cl)c1", "growth", 97.1],
  ["Cc1cc(C(C)(C)C)cc(C)c1CC1=NCCN1", "growth", 107]
]}

Each compound below has a recorded value; state its growth.
1. O=C1Nc2ccc(F)cc2/C1=C/c1nc(-c2ccc(F)cc2)n2ccccc12
2. Cc1ccccc1NC(=O)c1cc2ccccc2cc1O
3. Cc1cc(O)c2c(c1)C[C@H]1[C@@H]3CC[C@H]4CC(=O)CC[C@]4(C)[C@H]3CC(=O)[C@]21C

Data returned:
97.7
60
97.4

====

Test system: RXF 393 renal
Assay: NCI-60 one-dose screen, 48 h (100 = growth as untreated, 0 = no growth, -100 = all killed)
Details: 10 µM unless noted
This is part of a sample that, as a whole, favours compounds with a hit. Of some 83,000 tested, about 20% had one in any assay. The source made the active and inactive calls. Rule for the calls: active = growth percent below 10; inactive = the rest.
For each of the molecules below, state its growth.

Worked examples, 2 molecules total:
{"columns": ["molecule", "reportedResult"],
 "data": [
  ["CCCCC(C#N)C(N)=O (stereo not given)", "121% (inactive)"],
  ["COc1cccc2c1C(=O)c1c(O)c3c(c(O)c1C2=O)C[C@@](O)(/C(C)=N/NC(=O)c1cccc([N+](=O)[O-])c1)C[C@@H]3OC1CC(N)C(O)C(C)O1 (stereo not given in full)", "-64.9% (active)"]
]}

Each molecule below has a recorded value; state its growth.
1. Cc1ccc(NC(=O)CSc2nnc3n(Cc4ccccc4)c(=O)c4c(C)c(C(N)=O)sc4n23)cc1
2. COc1c(C)c2c(c(O)c1C/C=C(\C)CCC(=O)OCCN1CCOCC1)C(=O)OC2
3. O=C(Oc1ccc[nH]c1=O)c1cccc(Cl)c1
4. COc1ccc(-n2nc3c(c2-c2ccc(OC)c(OC)c2)-c2oncc2CC3)cc1

Data returned:
1. 79.9% (inactive)
2. 51.9% (inactive)
3. 163% (inactive)
4. 83.8% (inactive)

Each molecule below has a recorded value; state its growth.
1. CCCCCCCC/C=C/CCCCCCCC1=NC(C)(C)CN1CC(C)O (stereo not given)
2. CC(CCC(=O)O)(NC(=O)c1ccc([N+](=O)[O-])cc1)C(=O)O (stereo not given)

Data returned:
1. 14.7% (inactive)
2. 115% (inactive)

Each molecule below has a recorded value; state its growth.
1. COc1cc2c(c(OC)c1OC)-c1ccc(NN(C(=O)c3ccccc3)C(=O)c3ccccc3)c(=O)cc1[C@@H](NC(C)=O)CC2 (tested in a mixture with another compound)
2. CC(C)[C@H]1CC[C@H]2[C@@H](CC[C@H]3[C@](C)(CN)CCC[C@]23C)C1

Data returned:
1: 38.5% (inactive); 2: 86.9% (inactive)
